assay details: Pharmacokinetics of the compounds in mice
Format: in vivo, BALB/c mice
condition label: male, BALB/c, mouse, plasma, iv, 2 mg/kg, male BALB/c mice, single intravenous dose 2 mg/kg, plasma; read-out: Vd
measurement name: Vd (L/kg)

1. C[n+]1cc(-c2ccc(OC[C@H](O/N=C(\C(=O)N[C@@H]3C(=O)N(OS(=O)(=O)[O-])C3(C)C)c3csc(N)n3)C(=O)O)cc2)ccc1NC(=O)[C@@H](N)CCCCN = 0.88
2. CC1(C)[C@H](NC(=O)/C(=N\O[C@@H](COc2ccc(-c3cn4[n+](c3)CC(OCCCN)C4)cc2)C(=O)O)c2csc(N)n2)C(=O)N1OS(=O)(=O)[O-] (some centres unmarked) = 0.35
